System: MALME-3M melanoma
test method notes: NCI tumour cell line growth inhibition, 48 h
measurement label: TGI

Give the measured TGI of CN(C)N1C(=C(C#N)C#N)C(c2ccccc2)CC1C#N (centres undefined) . > 100 µM

Can you check `Clc1ccc2c(NCCCCNc3nc(N4CCOCC4)nc4ccccc34)ccnc2c1` next? 3.89 µM

O=C1CC(Nc2ccccc2)c2c(Cl)sc(Cl)c21 (centres undefined) ? 2.83 µM

// query: `CC(=O)Nc1ccc(CC[C@H]2CCC/C=C/[C@@H]3C[C@H](O)C[C@H]3[C@H](O)/C=C/C(=O)O2)cc1` 0.573 µM

What do you have for `CN(c1ccccc1)c1nc(=[N+](C)C)ss1` ? > 100 µM

Next entry: `N#C/C=C(/NC(=O)Nc1ccccc1)N1CCCC1` > 66.9 µM

Also CCN(CC)CC(C(=O)Nc1c(C)cccc1C)/C(C)=N\NC(=S)NN (centres undefined) ? > 100 µM

What would you report for COc1ccc(C2c3cc4c(cc3OC(N3CCOCC3)C2C)OCO4)cc1OC (centres undefined) ? > 100 µM

Same for `C=CCn1c(SCC(=O)Nc2ccc(C(=O)/C=C/c3cc(OC)c(OC)c(OC)c3)cc2)nnc1-c1cc(OC)c(OC)c(OC)c1` 64.4 µM

Also, COc1ccc(C(O)C(c2ccc(OCc3ccccc3)cc2)c2ccc(OCc3ccccc3)cc2)cc1 (centres undefined) please. > 100 µM

Item: `COc1ccc(-c2nc(-c3nc4cc(Cl)c(Cl)cc4[nH]3)c3ccccn23)cc1` 5.85 µM

Also, `COc1ccc(-c2nn3ncccc3c2-c2ccnc(Nc3ccc(F)c(F)c3)n2)cc1` please. > 25 µM

Moving on to the next compound: `O=S1(=O)[C@H](c2ccccc2)c2c(-c3ccccc3)sc(-c3ccccc3)c2[C@@H]1c1ccccc1` > 100 µM

What about CC1=NC2(C(=O)O)C3(C(=O)O)N=C(C)OC3(C(F)(F)F)C2(C(F)(F)F)O1 (centres undefined) ? > 100 µM

----------
Test system: NCI-H23 lung
test method notes: NCI tumour cell line growth inhibition, 48 h
Would you kindly list TGI for each of these molecules?

Name the reported TGI value associated with the molecule `COc1cc(O)c2c(=O)c3cccc(C)c3[nH]c2c1` > 10 µM

Also `O=S1(=O)[C@H](c2ccccc2)c2c(-c3ccccc3)sc(-c3ccccc3)c2[C@@H]1c1ccccc1` , if possible. > 100 µM

Here is the next molecule: `CCN(CC)P(=O)(c1ccc2c(c1)OCCOCCOCCOCCO2)N(CC)CC` > 100 µM

Next entry: COc1cccc(C2CC(C)(O)Oc3cc4c(cc32)OCO4)c1 (stereo unspecified) > 100 µM

# iterate: `CCOP(=O)(OCC)/C(C#N)=C/c1nc[nH]c1C` > 100 µM

# iterate: `CN(C(=O)Cc1cc(Cl)c(Cl)cc1NC(=O)CCCN)[C@H]1CCCC[C@@H]1N1CCCC1` > 100 µM

----------
System: U251 CNS
test method notes: NCI tumour cell line growth inhibition, 48 h
Where a SMILES comes first, the peptide text is derived from it. [ ]: non-standard residue; d: D form. ξ: configuration not given here. Pentanoyl(2-O,4-OH,5-Cl) = O=C(O)C(O)CC(O)CCl; Ile(3ξ) = CCC(C)[C@H](N)C(=O)O; NMeV = CN[C@H](C(=O)O)C(C)C; NMeA = CN[C@@H](C)C(=O)O; βAla = NCCC(=O)O
Field: TGI. Provide a value for each of the compounds that follow.

GET /values?readout=TGI&system=U251 CNS&item= O=C(O)C1CCCN1 (centres undefined) > 100 µM

Continue with `COC(=O)[C@H](Cc1ccccc1)NC(=O)N(CCN(CCC#N)C(=O)N[C@H](C(=O)OC)C(C)C)c1ccccc1` > 100 µM

// query: Fc1ccc(/C=C2\COCC3=C2NC(=S)NC3c2ccc(F)cc2)cc1 (centres undefined) 40.8 µM

Field entry: CC1=NC2(C(=O)O)C3(C(=O)O)N=C(C)OC3(C(F)(F)F)C2(C(F)(F)F)O1 (centres undefined) > 100 µM

Try the compound `CC(C)(Sc1cc(C(C)(C)C)c(O)c(C(C)(C)C)c1)Sc1cc(C(C)(C)C)c(O)c(C(C)(C)C)c1` > 100 µM

Cool, now CCC(C)[C@@H]1NC(=O)[C@@H]2CCCN2C(=O)C(CC(O)CCl)OC(=O)CCNC(=O)[C@H](C)N(C)C(=O)[C@H](C(C)C)N(C)C1=O (some centres undefined) (cyclo([Ile(3ξ)][NMeV][NMeA][βAla][Pentanoyl(2-O,4-OH,5-Cl)]P)) > 100 µM

Would you mind doing `CSC(=Nc1ccccc1)c1c(C)[nH]n(-c2ccccc2)c1=O` as well? > 100 µM

For `CCOC(=O)c1ccc(N2C(=O)/C(=C/c3ccc(N(CCC#N)CCC#N)cc3)N=C2c2cc([N+](=O)[O-])ccc2Cl)cc1` then? > 100 µM

Input `Cc1c2ccccc2c(=O)n2c(-c3ccccn3)cccc12` > 100 µM

Do the same for `CCOC(=O)Cn1nnc2ccc(Nc3nc4ccccc4nc3C(=O)OCC)cc21` please > 100 µM

Note, next up: `Cc1cc(NC(=O)NCCCOc2ccc(N3C(N)=NC(N)=NC3(C)C)cc2Cl)ccc1S(=O)(=O)F` 19.7 µM

How about this compound: `Clc1ccc2c(NCCCCNc3nc(N4CCOCC4)nc4ccccc34)ccnc2c1` 3.66 µM

Please do the same for `[Cu].c1ccc2c(c1)C1=NC2=NC2=NC(=NC3=NC(=NC4=NC(=N1)c1ccccc14)c1ccccc13)c1ccccc12` as well. > 100 µM

Then this compound: `Cc1cccc(C)c1NC(=S)N/C=C(\C#N)C(N)=O` > 100 µM
